tested on: OCI-AML2; test: WST-1 cell proliferation assay; format: cell-based; settings: Homo sapiens, AML, WST-1, 48 h, read-out: IC50 antiproliferative effect, OCI-AML2
pIC50: −log10 of the molar value.
experimentalReadout: pIC50

smilesInput: O=C(O)c1c[nH]c(=S)[nH]c1=O
assayTarget: OCI-AML2
pIC50: < 4.00

smilesInput: O=C(O)c1cnc(SCCc2ccccc2)[nH]c1=O
assayTarget: OCI-AML2
pIC50: < 4.00

Q. For the compound shown here, `O=C(O)c1cnc(SCCCc2ccccc2)[nH]c1=O` , give the reported pIC50.
A. < 4.00

====

biological target: KDM4A (Homo sapiens)
Sequence (O75164 1-359): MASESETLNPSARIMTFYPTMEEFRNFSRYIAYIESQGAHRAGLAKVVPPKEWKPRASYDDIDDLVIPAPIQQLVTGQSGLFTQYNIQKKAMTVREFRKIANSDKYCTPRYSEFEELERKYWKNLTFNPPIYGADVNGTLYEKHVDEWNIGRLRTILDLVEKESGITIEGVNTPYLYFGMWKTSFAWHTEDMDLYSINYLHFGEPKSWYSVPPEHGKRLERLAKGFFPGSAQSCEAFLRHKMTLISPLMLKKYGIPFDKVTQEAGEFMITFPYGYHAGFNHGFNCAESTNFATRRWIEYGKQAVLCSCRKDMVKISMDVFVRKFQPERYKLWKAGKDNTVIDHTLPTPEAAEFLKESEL
Documented IC50 across a set of molecules
I only need the number, in µM, no unit after it.

Record excerpt, results attached:
smilesInput: O=C(O)c1cnc(SCCCc2ccccc2)[nH]c1=O
experimentalReadout: IC50
unitsLabel: µM
numericResult: 74.2

smilesInput: CCCCCCCCCSc1ncc(C(=O)O)c(=O)[nH]1
experimentalReadout: IC50
unitsLabel: µM
numericResult: 13.4

smilesInput: O=C(O)c1cnc(SCc2ccccc2)[nH]c1=O
experimentalReadout: IC50
unitsLabel: µM
numericResult: 24.6

smilesInput: O=C(O)/C=C\Sc1ncc(C(=O)O)c(=O)[nH]1
experimentalReadout: IC50
unitsLabel: µM
numericResult: 64.1

smilesInput: O=C(O)c1cnc(SCC2CCCCC2)[nH]c1=O
experimentalReadout: IC50
unitsLabel: µM
numericResult: 20.8

smilesInput: CSc1ncc(C(=O)O)c(=O)[nH]1
experimentalReadout: IC50
unitsLabel: µM
numericResult: 17.6

Q. # value lookup — system KDM4A (Homo sapiens), readout IC50, item `CCCCCSc1ncc(C(=O)O)c(=O)[nH]1`
A. 16.5

Q. Query IC50 on KDM4A (Homo sapiens) for `CCCCSc1ncc(C(=O)O)c(=O)[nH]1`
A. 9.1

Q. Which IC50 is reported with KDM4A (Homo sapiens) for this entry: `O=C(CSc1ncc(C(=O)O)c(=O)[nH]1)c1ccccc1` ?
A. 32.8
